tested on: U2OS; assay: Multiplex assay against U2OS; format: toxicity, cell-based; conditions: human, 12 h, 10 µM, compound concentration 10 uM, replicate 2
Please use label 1 whenever Population Apoptotic (%) is not below 90%, and label 0 whenever it is.

>  <compound>
CCCC(CCC)C(=O)O

>  <labelValue>
label 0

$$$$

Q: Reported Population Apoptotic (%) reaches at least 90% for "Cc1ccc(-c2ccc(F)cc2COc2ccc(CCC(=O)O)cc2)cc1" ?
A: label 0

Q: Also "CCOc1c2c(c(OCC)c3ncccc13)CN(c1ccc(CS(=O)(=O)NC(=O)Cc3ccccc3OC)cc1C)C2=O" , if possible.
A: label 0

Q: Also "CCNC1(C(N)=O)CCN(c2ncnc3c2nc(-c2ccccc2Cl)n3-c2ccc(Cl)cc2)CC1" , if possible.
A: label 0

Q: Also "O=C(NCCO)c1cccc(-c2cc(Nc3ccc(OC(F)(F)F)cc3)ncn2)c1" , if possible.
A: label 1

Q: Also CCCN1CCC[C@@H]2Cc3n[nH]cc3C[C@H]21.Cl [QUINPIROLE HYDROCHLORIDE] , if possible.
A: label 1

* * *

tested on: Fibroblast; assay: Multiplex assay against human fibroblast; assay type: toxicity, cell-based; conditions: 12 h, 1 µM, compound concentration 1 uM, replicate 1
propertyMeasured: Total Cell Count
Lab note: record just the number, no unit beside it.

Previously resolved entries follow.
>  <compound>
CN1CCN2c3ncccc3Cc3ccccc3C2C1 (stereo not given)

>  <observedValue>
213

$$$$
>  <compound>
CC(=O)NCCc1c(Cc2ccccc2)[nH]c2ccccc12

>  <observedValue>
129

$$$$
>  <compound>
CC[C@H]1OC(=O)[C@H](C)[C@@H](O[C@H]2C[C@@](C)(OC)[C@@H](O)[C@H](C)O2)[C@H](C)[C@@H](O[C@@H]2O[C@H](C)C[C@H](N(C)C)[C@H]2O)[C@@]2(C)CC(C)=C(O2)[C@H](C)[C@@H](O)[C@]1(C)O

>  <observedValue>
176

$$$$
>  <compound>
COc1ccc2c(c1)C(C(=O)N(Cc1ccc(N(C)C)cc1)c1ccc(C(C)C)cc1)CCC2.Cl (stereo not given)

>  <observedValue>
163

$$$$
>  <compound>
CCCn1c(=O)c2[nH]c(C3CCCC3)nc2n(CCC)c1=O

>  <observedValue>
175

$$$$

Q: Please give the measured Total Cell Count for this compound: "CCOc1c2c(c(OCC)c3ncccc13)CN(c1ccc(CS(=O)(=O)NC(=O)Cc3ccccc3OC)cc1C)C2=O"
A: 120

Q: Also "Cc1ccc(F)cc1C(=O)Nc1ccc(C(=O)N2Cc3cccn3Cc3ccccc32)c(Cl)c1" , if possible.
A: 186

Q: Also "COc1cc(NC(=O)CCN2CCC(OC(=O)Nc3ccccc3-c3ccccc3)CC2)c(Cl)cc1CNC[C@H](O)c1ccc(O)c2[nH]c(=O)ccc12" , if possible.
A: 181

Q: Also "N#Cc1c(N)nc(SCc2csc(-c3ccc(Cl)cc3)n2)c(C#N)c1-c1ccc(OCCO)cc1" , if possible.
A: 139

Q: Also "N[C@@]1(C(=O)O)CO[C@H]2[C@H](C(=O)O)[C@H]21" , if possible.
A: 156

Q: Also "Oc1c(CN2CCN(c3ccccn3)CC2)cc(Cl)c2cccnc12" , if possible.
A: 168
